# TGT: T1, human GIP receptor (human, UniProt P48546 22-466)
# T1 sequence (looked up): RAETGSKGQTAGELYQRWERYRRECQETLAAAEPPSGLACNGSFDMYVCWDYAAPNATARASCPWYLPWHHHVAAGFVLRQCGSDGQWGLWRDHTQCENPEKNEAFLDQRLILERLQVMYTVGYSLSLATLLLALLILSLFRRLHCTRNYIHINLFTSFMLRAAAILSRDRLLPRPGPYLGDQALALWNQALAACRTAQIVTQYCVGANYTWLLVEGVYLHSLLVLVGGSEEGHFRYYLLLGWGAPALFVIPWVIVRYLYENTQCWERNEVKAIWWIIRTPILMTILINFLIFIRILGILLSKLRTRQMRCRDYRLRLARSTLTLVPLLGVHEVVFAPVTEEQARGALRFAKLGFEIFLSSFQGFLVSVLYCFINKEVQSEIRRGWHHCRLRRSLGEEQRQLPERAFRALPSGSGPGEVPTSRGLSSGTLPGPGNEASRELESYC
# ASSAY SUMMARY: cell-based or functional assay
Positions of bridges follow the written chain, without caps; N, C: chain ends. Non-standard residues stand in square brackets, D forms with d. No end group written: not given here. *: point of attachment. Acetyl(2-(4-imidazolyl)) = O=C(Cc1c[nH]cn1)*; Aib = CC(C)(N)C(=O)O
MEASURED QUANTITY: In vitro activity (%) compared with native peptide: vs GIP
Kindly answer with a numeric value in %, unit omitted.

Qu. Look up and report measured In vitro activity (%) compared with native peptide: vs GIP for this entry: {Acetyl(2-(4-imidazolyl))}-[Aib]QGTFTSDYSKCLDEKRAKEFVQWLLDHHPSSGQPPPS (bridge 15-19; not fully specified) [triple agonist of SEQ ID NO: 74]
Ans. 1

Ref: patent US20230372448A1
